Reported log10 of IC50 values for the following molecules.
Experimental system: UniProt:P13866
Measurement description: SGLT1 inhibitory activity: 14C-AMG uptake into CHO-K1 cell line stably expressing human SGLT1
Format: cell-based
Test parameters: 14C-AMG uptake, CHO-K1 cells stably expressing human SGLT1
Form field - Quantity: IC50; Unit: nM; Scale: log10

// worked examples, log10 of IC50 included
{"Molecule": "CCCc1cccc(-c2cc(NC(=O)[C@H]3CNC(=O)O3)nn2-c2ccccc2)c1 [Example 258]", "Assay metric": "log10 of IC50", "Meas value": 1.36}
{"Molecule": "C[C@@H](OCc1cc(Cl)cc(-c2cc(NC(=O)[C@@H]3CNC(=O)C3)nn2-c2ccc(F)cc2)c1)C(F)(F)F [Example 242]", "Assay metric": "log10 of IC50", "Meas value": 0.95}
{"Molecule": "CC(C)(OCc1cc(Cl)cc(-c2cc(NC(=O)[C@H]3CNC(=O)N3)nn2-c2ccc(F)cc2)c1)C(F)(F)F [Example 600]", "Assay metric": "log10 of IC50", "Meas value": 1.61}
{"Molecule": "CCCc1cccc(-c2cc(NC(=O)[C@@H]3CNC(=O)C3)nn2-c2cccc(OC3CCC3)c2)c1 [Example 412]", "Assay metric": "log10 of IC50", "Meas value": 1.04}
{"Molecule": "CCCc1cccc(-c2cc(NC(=O)[C@@H]3CNC(=O)C3)nn2-c2cccc(OC(C)C)c2)c1 [Example 344]", "Assay metric": "log10 of IC50", "Meas value": 0.53}

Query block: Input O=C1C[C@H](C(=O)Nc2cc(-c3cccc(COC(C(F)(F)F)C(F)(F)F)c3)n(-c3ccccc3)n2)CN1 [Example 246] , output reported log10 of IC50.
Result block: 1.06

Query block: Input CCCc1cccc(-c2cc(NC(=O)[C@@H]3CNC(=O)O3)nn2-c2ccccc2)c1 [Example 257] , output reported log10 of IC50.
Result block: 1.88

* * *

Experimental system: human SGLT1 (Homo sapiens (Human), UniProt P13866)
Sequence (P13866 whole entry): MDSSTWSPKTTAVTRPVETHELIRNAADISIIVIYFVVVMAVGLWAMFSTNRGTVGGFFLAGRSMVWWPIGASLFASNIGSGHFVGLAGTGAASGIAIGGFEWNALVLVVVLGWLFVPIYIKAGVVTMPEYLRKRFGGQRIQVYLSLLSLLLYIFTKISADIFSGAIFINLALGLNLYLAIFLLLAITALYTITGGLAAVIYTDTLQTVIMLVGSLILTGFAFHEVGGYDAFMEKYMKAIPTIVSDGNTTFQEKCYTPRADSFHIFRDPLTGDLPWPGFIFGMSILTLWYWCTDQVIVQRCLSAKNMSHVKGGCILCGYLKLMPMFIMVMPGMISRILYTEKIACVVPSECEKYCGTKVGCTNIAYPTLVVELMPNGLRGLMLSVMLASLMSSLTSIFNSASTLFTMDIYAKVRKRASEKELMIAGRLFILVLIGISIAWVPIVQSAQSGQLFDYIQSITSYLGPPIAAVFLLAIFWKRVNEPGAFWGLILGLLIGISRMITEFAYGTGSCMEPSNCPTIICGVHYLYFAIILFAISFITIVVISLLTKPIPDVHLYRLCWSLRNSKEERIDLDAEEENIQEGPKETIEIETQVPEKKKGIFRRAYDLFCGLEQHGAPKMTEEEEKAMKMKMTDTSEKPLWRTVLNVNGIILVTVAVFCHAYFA
Measurement description: SGLT1 inhibitory activity: 14C-AMG uptake into CHO-K1 cell line stably expressing human SGLT1
Format: cell-based
Test parameters: 14C-AMG uptake, CHO-K1 cells stably expressing human SGLT1
pIC50: −log10 of the molar value.
Where pIC50 equals or exceeds 8, the correct label is 1; where it does not, the label is -1.

Previously resolved entries follow.
{"Smiles data": "O=C1NC[C@H](C(=O)Nc2cc(-c3cccc(COC(C(F)(F)F)C(F)(F)F)c3)n(-c3ccccc3)n2)O1", "Class assignment": -1}
{"Smiles data": "CCOc1cccc(-n2nc(NC(=O)[C@@H]3CNC(=O)C3)cc2-c2cccc(COCC(F)(F)F)c2)c1", "Class assignment": 1}
{"Smiles data": "CC(C)(C)CCOc1cccc(-c2cc(NC(=O)[C@@H]3CNC(=O)C3)nn2-c2ccccc2)c1", "Class assignment": -1}
{"Smiles data": "COCCOc1ccc(F)c(-n2nc(NC(=O)[C@@H]3CNC(=O)C3)cc2-c2cccc(CO[C@H](C)C(F)(F)F)c2)c1", "Class assignment": 1}
{"Smiles data": "COc1cc(F)cc(-n2nc(NC(=O)[C@@H]3CNC(=O)C3)cc2-c2cccc(CO[C@H](C)C(F)(F)F)c2)c1", "Class assignment": 1}

Could you now look at the following compound, please?
Query block: Record CCCc1cccc(-c2cc(NC(=O)[C@@H]3CNC(=O)C3)nn2-c2cccc(OCC)c2)c1 ; criterion: pIC50 no lower than 8. Met?
Result block: 1
